test system: Plasmodium falciparum NF54; experiment: growth inhibition relative to untreated control; higher = more inhibition; settings: 1 µM; minimal medium (MM); 72 h
Kind request: treat 80% as inclusive, so growth inhibition at 80% or higher is Fulfilled, anything lower is Not fulfilled.

>>> group("COC(=O)c1c(NC(=O)c2c(F)c(F)c(F)c(F)c2F)sc2c1CCCCC2")
"Not fulfilled"
>>> group("CCc1ccc(S(=O)(=O)Nc2cc(CN3CCN(CCC(C)C)CC3)ccc2C)cc1")
"Not fulfilled"
>>> group("Cc1cc(Nc2ccncc2)n2nc(C)c(-c3ccccc3Cl)c2n1")
"Fulfilled"
>>> group("c1cncc(NCc2ccc(-c3cc4ccncc4cc3OC3CCNCC3)s2)c1")
"Fulfilled"
>>> group("CCN(CC)CCCN1CCN(C(=O)c2cccc(-c3noc(C(F)(F)F)n3)c2)CC1")
"Fulfilled"
>>> group("CN1CCN(S(=O)(=O)c2ccc(-c3ccc4c(Nc5ccc6nn[nH]c6c5)ccnc4c3)cc2)CC1")
"Fulfilled"
>>> group("O=C1[C@@H](Oc2ccccc2)[C@@H](c2ccc(Cl)cc2)N1CCn1cnc2c(NCc3ccccc3)ncnc21")
"Not fulfilled"
>>> group("COc1ccc(Oc2ccc([C@@H](C)N(C)c3ncc4c(N)nc(N)nc4n3)cc2)cc1")
"Not fulfilled"
>>> group("Cn1ccnc1CNCCS(=O)(=O)c1cccc(Nc2ccc(-c3cccc(F)c3)cn2)c1")
"Not fulfilled"

====

test system: Plasmodium falciparum NF54; assay: growth inhibition relative to untreated control; higher = more inhibition; settings: 5 µM; minimal medium (MM); 72 h
metric: growth inhibition (%)

>>> experimental_value("OC[C@H]1O[C@@H](n2c3ccc(Cl)cc3c3c(-c4cc5ccccc5o4)ncnc32)C(O)[C@H]1O (stereo partly specified)")
30
>>> experimental_value("CC(C)C(Oc1cccc2ccccc12)C(=O)O (stereo unspecified)")
0.0991
>>> experimental_value("Cn1c(=O)c2c(S(C)(=O)=O)snc2n(C)c1=O")
23.5
>>> experimental_value("CC(=O)NCC1CN(c2ccc(-c3ccc(CO)cc3)c(F)c2)C(=O)O1 (stereo unspecified)")
17.6
>>> experimental_value("CNC(=O)CNc1nc(-c2ccccn2)nc2scc(-c3ccccc3)c12")
37.3
>>> experimental_value("COc1cc(-c2cc(-c3ccc(S(C)(=O)=O)cc3)cnc2N)ccc1O")
96
>>> experimental_value("Nc1nccc2ccc(Oc3ccncc3)cc12")
60.1
>>> experimental_value("Cc1ccc(S(=O)(=O)n2cc(-c3ccnc(N)c3)c3cc(Br)cnc32)cc1")
95.2

====

system: Plasmodium falciparum NF54; test: growth inhibition relative to untreated control; higher = more inhibition; details: 1 µM; MM + chorismate end-products (CM screening medium); 72 h
Answer 0 (no) if growth inhibition is under 30%, and 1 (yes) if it is 30% or more.

>>> group("COC(=O)c1cccc2oc(-c3cccc(OC)c3NC(=O)c3cc(-c4ccccc4)on3)nc12")
"0 (no)"
>>> group("Cc1nc(-c2ccccn2)nc(N(C)CCc2ccccc2)c1Cl")
"1 (yes)"
>>> group("Cn1ncc2c(N3CCOCC3)nc(NCCc3c[nH]c4ccccc34)nc21")
"0 (no)"
>>> group("O=C(Nc1cccc(Cl)c1)c1cnc(N2CCN(c3ccncc3)CC2)c(Cl)c1")
"1 (yes)"
>>> group("Nc1ncc(-c2cn[nH]c2)cc1-c1nc2cc(Cl)cnc2[nH]1")
"1 (yes)"
>>> group("COc1ccc(C2(C(=O)Nc3ccc(Br)cc3)CCCC2)cc1")
"0 (no)"
>>> group("Cc1ccc(NC(=O)c2nc[nH]c2C(=O)Nc2nc3ccccc3[nH]2)c(C)c1")
"1 (yes)"
>>> group("Cc1ccc(S(=O)(=O)Nc2ccc(CN3CCN(C(=O)c4cccc(C#N)c4)CC3)cc2)cc1")
"0 (no)"
>>> group("c1csc(-c2cnc3sc(NCC4CCOCC4)nn23)c1")
"1 (yes)"
>>> group("Cc1cc(C)c2cc(C(=O)NC3CCCCCCC3)[nH]c2c1")
"1 (yes)"

====

test system: Plasmodium falciparum NF54; test: growth inhibition relative to untreated control; higher = more inhibition; conditions: 1 µM; MM + chorismate end-products (CM screening medium); 72 h
metric: growth inhibition

>>> experimental_value("O=C(c1ccc(F)cc1)N(CCNc1ccccc1)c1ccccc1")
"< 0%"
>>> experimental_value("Cc1ccc(Oc2ccc(NC(=O)CNc3ccccc3N3CCCC3=O)cc2)cc1")
"85.2%"
>>> experimental_value("CCN(CC)CCCCCCNc1cc(OC)cc2c(C)ccnc12")
"93.3%"
>>> experimental_value("CN1CCCC1CCO[C@](C)(c1ccccc1)c1ccc(Cl)cc1 (stereo partly specified)")
"96.4%"
>>> experimental_value("CS(=O)(=O)c1ccc(C(=O)N(CC2CCCO2)c2nc3ccccc3s2)cc1[N+](=O)[O-] (stereo unspecified)")
"< 0%"
>>> experimental_value("CC1CCCCN1C(=O)NCCc1coc(-c2ccc(F)cc2)n1 (stereo unspecified)")
"< 0%"

====

system: Plasmodium falciparum NF54; assay: growth inhibition relative to untreated control; higher = more inhibition; conditions: 5 µM; MM + chorismate end-products (CM screening medium); 72 h
metric: growth inhibition

>>> experimental_value("CC(=O)NCC1CN(c2ccc(-c3ccc(CNCc4cn[nH]n4)cc3)c(F)c2)C(=O)O1 (stereo not given)")
"34.6%"
>>> experimental_value("O=C(NCCc1c[nH]c2ccccc12)c1cc2ccccc2oc1=O")
"< 0%"
>>> experimental_value("NC(=O)c1cc(-c2ccsc2)ccc1OCCOc1ccccc1")
"4.73%"
>>> experimental_value("N=C(N)c1ccc(-c2cc(-c3ccccc3)on2)cc1")
"86.7%"
>>> experimental_value("CC1=Nc2ccc(Cl)cc2C(O)(c2ccc(C)cc2)N1CCN1CCCCC1 (stereo not given)")
"> 100%"
>>> experimental_value("Nc1ncc(-c2ccc(C(F)(F)F)nc2)cc1-c1ccc(C(F)(F)F)nc1")
"54.4%"
>>> experimental_value("CCCCS(=O)(=O)Nc1ccc2cnn(C)c2c1")
"13.4%"
>>> experimental_value("O=C(NCc1ccco1)N1CCN(Cc2ccc(Cl)s2)CC1")
"21%"
>>> experimental_value("CC[C@@H](CO)NCCN[C@@H](CC)CO")
"0.997%"
>>> experimental_value("C[C@H]1c2cccc(O)c2C(=O)C2=C(O)[C@]3(O)C(=O)C(C(N)=O)=C(O)[C@@H](N(C)C)[C@@H]3[C@@H](O)[C@@H]21")
"41%"

====

test system: Plasmodium falciparum NF54; experiment: growth inhibition relative to untreated control; higher = more inhibition; conditions: 5 µM; minimal medium (MM); 72 h
metric: growth inhibition (%)

>>> experimental_value("CCc1nc2ccc(Cl)cn2c1C(=O)NCc1ccc(N2CCC(c3ccc(OC(F)(F)F)cc3)CC2)cc1")
71.4
>>> experimental_value("COc1ccc(C2(C(=O)Nc3ccc(Br)cc3)CCCC2)cc1")
2.98
>>> experimental_value("CCOc1ccccc1NC(C)C(=O)Nc1cc(C(F)(F)F)ccc1N1CCOCC1 (stereo not given)")
96.1
>>> experimental_value("CC(C)(C)c1cc(C(=O)Nc2cccnc2)cc(C(=O)Nc2cccnc2)c1")
88.6
>>> experimental_value("Cc1ncc(-c2ccnc(Nc3ccc(S(C)(=O)=O)cc3)n2)n1C(C)C")
45.6
>>> experimental_value("CC(Oc1ccccc1)C(=O)Nc1nc(-c2ccccn2)cs1 (stereo not given)")
38.2
>>> experimental_value("CN1CCCN(C(c2ccccc2)c2ccc(Cl)cc2)CC1 (stereo not given)")
17.6

====

system: Plasmodium falciparum NF54; assay: growth inhibition relative to untreated control; higher = more inhibition; conditions: 1 µM; minimal medium (MM); 72 h
Listing: growth inhibition of selected molecules
metric: growth inhibition (%)

>>> experimental_value("N=C(N)c1ccc(-c2cc(-c3ccccc3)on2)cc1")
5.06
>>> experimental_value("Cc1ccccc1C(=O)N1N=C(Nc2ccccc2)SC1(C)C")
9.58
>>> experimental_value("O=C1Nc2ccc(Br)cc2C12NCCc1c2[nH]c2ccccc12 (centres undefined)")
94.7
>>> experimental_value("C[C@]1(O)C[C@@H](c2nc(-c3ccc4ccc(-c5ccccc5)nc4c3)c3c(N)nccn32)C1")
34.1

====

system: Plasmodium falciparum NF54; test: growth inhibition relative to untreated control; higher = more inhibition; settings: 1 µM; minimal medium (MM); 72 h
Returns y if the recorded growth inhibition is greater than or equal to 60%, and n otherwise.

>>> group("O=S(=O)(c1ccc(Cl)cc1)N1CCN(C(=S)NCc2ccco2)CC1")
"y"
>>> group("CCc1nc2ccc(Cl)cn2c1C(=O)NCc1ccc(N2CCC(c3ccc(OC(F)(F)F)cc3)CC2)cc1")
"n"
>>> group("Cc1cc2nc(NC(=O)C(C)(C)C)nc(Cl)c2n1Cc1ccc(Cl)cc1")
"n"
>>> group("COc1cccc(-n2nnnc2S(=O)(=O)Cc2ccccc2)c1")
"n"
>>> group("Cc1nn(C(=O)Nc2cccc(C(F)(F)F)c2)c(C)c1Sc1ncccn1")
"n"
>>> group("Cc1cnc(N2CCN[C@@H](Cc3ccccc3)C2)nc1Oc1ccc(-n2ccnc2)cc1")
"y"
>>> group("FC(F)(F)c1ccc(N(c2cccnc2)C2CCN(c3ccc(C(F)(F)F)cn3)CC2)cc1")
"n"
>>> group("Cc1ccc2c(c1C)NC(=O)C21NN=C(c2ccccc2)S1 (stereo unspecified)")
"y"
>>> group("O=C(CCC1CCCCC1)Nc1cccc(-c2nnc(-c3ccco3)o2)c1")
"n"
>>> group("CCN(CC)S(=O)(=O)c1ccc(Cl)c(C(=O)Nc2ccc3nc(C)sc3c2)c1")
"y"
>>> group("Cc1ccc2oc(-c3cc(NC(=O)Cc4ccccc4)ccc3Cl)nc2c1")
"n"
>>> group("NC(CC(=O)c1ccc(Cl)cc1Cl)C(Cl)(Cl)Cl (stereo unspecified)")
"n"
>>> group("COc1cccc(-n2nnnc2S(C)(=O)=O)c1")
"n"
>>> group("CCC(Sc1nc2ccccc2o1)C(=O)Nc1nnc(C)s1 (stereo unspecified)")
"n"
>>> group("CC(C)(C)c1ccc(N[C@@H]2CCCC[C@H]2NC(=O)c2ccco2)cc1")
"n"
>>> group("COc1ccc(C2(C(=O)Nc3ccc(Br)cc3)CCCC2)cc1")
"n"
>>> group("COc1nc2ccc(Br)cc2cc1[C@@H](c1ccccc1)[C@@](O)(CCN(C)C)c1cccc2ccccc12")
"y"
>>> group("O=C(N[C@H](Cc1ccccc1)C(=O)Nc1ccccc1N1CCOCC1)c1cccs1")
"n"
>>> group("CC[C@@H](CO)NCCN[C@@H](CC)CO")
"n"
>>> group("CC1CC1C(=O)NC1CCN(CC2(c3ccccc3)CCCCC2)CC1 (stereo unspecified)")
"y"
>>> group("CC(C)(C)c1cc(C(=O)N2CCN(c3nccnc3C#N)CC2)n(Cc2ccccc2)n1")
"y"
>>> group("COc1cccc2c(C)nc(N=C(N)N)nc12")
"y"
>>> group("O=C1COCc2ccc(Br)cc2N1Cc1ccc(C(F)(F)F)cc1")
"y"
>>> group("CNC(=O)c1cc(S(=O)(=O)N2CCN(c3ccccn3)CC2)cs1")
"y"
>>> group("Clc1ccc(CCNc2cc(-c3ccccc3)nc3ncnn23)cc1")
"n"
>>> group("Brc1cncc(-c2cc(NCCCn3ccnc3)nc(-c3ccccc3)n2)c1")
"n"
>>> group("Cc1cc(NC(=O)c2ccc(S(=O)(=O)N(Cc3ccccc3)C(C)C)cc2)no1")
"y"
>>> group("COc1cncc(-c2cncc(N3CCN(c4ccncc4)CC3)n2)c1")
"y"
>>> group("C[C@]1(COc2ccc(N3CCC(Oc4ccc(OC(F)(F)F)cc4)CC3)cc2)Cn2cc([N+](=O)[O-])nc2O1")
"n"
>>> group("NCC(c1cccs1)S(=O)(=O)c1ccccc1 (stereo unspecified)")
"n"
>>> group("CS(=O)(=O)c1ccc(C(=O)N(CC2CCCO2)c2nc3ccccc3s2)cc1[N+](=O)[O-] (stereo unspecified)")
"n"
>>> group("COc1cccc(-c2cc3c(Nc4cccnc4)nccc3[nH]2)c1")
"n"
>>> group("CS(=O)(=O)N1CCC(CCn2nc(Cc3cccc4ccccc34)c3c(N)ncnc32)CC1")
"n"
>>> group("CO[C@H]1/C=C\\O[C@@]2(C)Oc3c(C)c(O)c4c(O)c(/c(=C/NN5CCN(C)CC5)c(O)c4c3C2=O)=N\\C(=O)/C(C)=C\\C=C/[C@H](C)[C@H](O)[C@@H](C)[C@@H](O)[C@@H](C)[C@H](OC(C)=O)[C@@H]1C")
"n"
>>> group("OC[C@H]1O[C@@H](n2c3ccc(Cl)cc3c3c(-c4cc5ccccc5o4)ncnc32)C(O)[C@H]1O (stereo partly specified)")
"n"
>>> group("Nc1ncc(-c2ccc(C(F)(F)F)nc2)cc1-c1ccc(C(F)(F)F)nc1")
"n"
>>> group("OCc1ccc(-c2cncc(Nc3cccc(Cl)c3)c2)cc1")
"y"
>>> group("O=C(NC1CCN(c2ccnc3ccccc23)C1)c1cccc(C(F)(F)F)c1 (stereo unspecified)")
"y"
